- ASSAY SYSTEM: guinea pig IL-17A (guinea pig)
- METHOD: ELISA, coated IL-17A
READOUT: OD (OD)
Your answer is read as OD, so omit the unit and give the number.

Check out these entries, answers already filled in.
02A08 (VHH, Class 2) VHH: EVQLVESGGGVVQPGGSLRLSCADSERSFSFNAMGWFRQAPGKEREFVAAISATGDDTYYADSVKGRFAISRDTARNTVYLQMNSLKPEDTAVYYCGARVNFDGTVSYTNDYAYWGQGTQVTVSS | 0.002
13B05 (VHH, Class 4) VHH: EVQLVESGGRLVQAGGSLRLSCAASGRTFTSYPMGWFRQAPGKEREFVAAISMSGDDTAYTDFVRGRFTISRDDARNTVYLHMTSLKPEDTAVYYCAARTSYDGTYDYIDDYSYWGQGTQVTVSS | 0.001

In plain terms, 13E02 (VHH, Class 4; also called IL17MS13E02) VHH: EVQLVESGGGLVQAGGSLRLSCAASGRTYDAMGWLRQAPGKEREFVAAISGSGDDTYYADSVKGRFTISKDNAGITMYLQMNSLKPEDTAVYYCATRRGLYYVWDSNDYENWGQGTQVTVSS has a documented OD of 0.006

16A04 (VHH, Class 3; also called IL17MS16A04) VHH: EVQLVESGGGLVQAGGSLRLSCAASGRTFSSYVVGWFRQAPGKEREFIGAISGSGDSIYYAVSEKDRFTISRDNGKNTLYLQMSSLKAEDTAVYYCTADQEFGYLRFGRSEYWGQGTQVTVSS has a reported OD of 0.008

What the record says about 17C01 (VHH, Class 4) VHH: EVQLVESGGRLVQAGGSLRLPCAASGRTFTSYPMGWFRQAPGKEREFVAAISMSGDDAAYADFVRGRFTISRDDARNTVYLHMTSLKPEDTAVYYCAARTSYDGTYDYIDDYSYWGQGTQVTVSS : OD is 0.007

Field OD (entry 04B09 (VHH, Class 2) VHH: EVQLVESGGGLVQPGGSLRLSCAASGFTLGYYAIGWFRQAPGKEREGVSCDSSSDGDTYYANSVKGRFTISTDNGKNTVYLQMNSLKPEDTAVYYCATCTDWNYDYWGQGTQVTVSS ) reads 0.006
